- Tested on: SK-MEL-5 melanoma
- PROTOCOL_SUMMARY: NCI tumour cell line growth inhibition, 48 h
MEASUREMENT_NAME: GI50

For the molecule shown here, `COc1ncc(-c2ccc3nccc(C#CCCCCC(=O)O)c3c2)cc1NS(=O)(=O)c1ccc(F)cc1F` , give the reported GI50.
2.84 µM

For the molecule shown here, `COc1ccc(-c2nnc(COc3ccc(Cl)cc3Cl)o2)cc1OC` , give the reported GI50.
3.27 µM

For the molecule shown here, `O=c1c2c([nH]c3ccccc13)CCCC2` , give the reported GI50.
45.3 µM

For the molecule shown here, CNC(=O)C(CCc1ccccc1)NC(=O)C(CC(=O)NO)CC(C)C (stereo unspecified) , give the reported GI50.
> 25 µM

For the molecule shown here, `Nc1ccccc1C#C/C=C\C#Cc1cnccn1` , give the reported GI50.
6.34 µM

For the molecule shown here, CCOC(=O)c1ccc2c(c1)[n+](=O)c(C(=O)C1CCCS1)c(C(F)(F)F)n2[O-] (stereo unspecified) , give the reported GI50.
0.964 µM
